Ref: ChEMBL document CHEMBL2346578

- System: Enterococcus faecalis
- ASSAY_PROCEDURE: microbe, parasite or virus in culture
- Format: functional
- PARTICULARS: ATCC 19433
- Description: Antibacterial activity against vancomycin-sensitive Enterococcus faecalis ATCC 19433 assessed as growth inhibition by CLSI broth microdilution method
QUANTITY_NAME: MIC90

Enquiry: Tell me the measured MIC90 of CC(C)(C)c1ccc(-c2cccc3cc(-c4cccc(N)c4)ccc23)cc1 , please.
Return: > 64 µg/mL

Enquiry: Please give the result for COC(=O)c1ccc(-c2ccc3c(-c4ccc(C(C)(C)C)cc4)cccc3c2)c(CN(C)C)c1 too.
Return: > 64 µg/mL

Enquiry: Please give the result for Cc1ccccc1-c1ccc2c(-c3ccc(C(C)(C)C)cc3)cccc2c1 too.
Return: > 64 µg/mL

Enquiry: Please give the result for CN(C)Cc1ccccc1-c1ccc2c(-c3ccc(C(C)(C)C)cc3)cccc2c1 too.
Return: > 64 µg/mL

Enquiry: Please give the result for CNCc1cc(C(=O)OC)ccc1-c1ccc2c(-c3ccc(C(C)(C)C)cc3)cccc2c1 too.
Return: 8 µg/mL

Enquiry: Please give the result for COC(=O)c1ccc(-c2ccc3c(-c4ccc(C(C)(C)C)cc4)cccc3c2)c(C[N+](C)(C)C)c1.[I-] too.
Return: 4 µg/mL

Enquiry: Please give the result for CNCc1ccccc1-c1ccc2c(-c3ccc(C(C)(C)C)cc3)cccc2c1 too.
Return: 2 µg/mL

Enquiry: Please give the result for CC(C)(C)c1ccc(-c2cccc3cc(-c4ccccc4CN=C(N)N)ccc23)cc1 too.
Return: 2 µg/mL

Enquiry: Please give the result for CC(C)(C)c1ccc(-c2cccc3cc(-c4ccc(C(=O)O)cc4CN)ccc23)cc1 too.
Return: > 64 µg/mL
